# target entity: IKZF2 (Homo sapiens, UniProt Q96SW2+Q9UKS7)
# Construct: CRISPR/Cas9—mediated insertion of the HiBiT peptide tag (Promega™) to the N-terminus of the IKZF2 gene locus; endogenous in cells; host or cells: MOLT4 cells, with CRISPR/Cas9 knock-in of HiBiT at the endogenous IKZF2 locus
# Sequence (Q9UKS7 whole entry): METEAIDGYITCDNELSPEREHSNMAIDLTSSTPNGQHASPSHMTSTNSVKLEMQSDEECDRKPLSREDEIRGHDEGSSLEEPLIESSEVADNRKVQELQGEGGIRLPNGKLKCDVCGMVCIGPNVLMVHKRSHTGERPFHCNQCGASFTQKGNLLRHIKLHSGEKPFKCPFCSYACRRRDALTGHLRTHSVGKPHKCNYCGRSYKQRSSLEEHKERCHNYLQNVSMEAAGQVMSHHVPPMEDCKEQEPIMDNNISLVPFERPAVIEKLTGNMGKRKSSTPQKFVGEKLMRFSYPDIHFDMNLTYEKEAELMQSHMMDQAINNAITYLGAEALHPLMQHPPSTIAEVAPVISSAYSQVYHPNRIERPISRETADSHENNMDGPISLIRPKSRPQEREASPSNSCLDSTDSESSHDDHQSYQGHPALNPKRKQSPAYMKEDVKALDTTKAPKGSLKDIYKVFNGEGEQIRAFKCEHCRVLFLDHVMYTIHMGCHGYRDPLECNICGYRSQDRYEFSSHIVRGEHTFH
# Sequence (Q96SW2 whole entry): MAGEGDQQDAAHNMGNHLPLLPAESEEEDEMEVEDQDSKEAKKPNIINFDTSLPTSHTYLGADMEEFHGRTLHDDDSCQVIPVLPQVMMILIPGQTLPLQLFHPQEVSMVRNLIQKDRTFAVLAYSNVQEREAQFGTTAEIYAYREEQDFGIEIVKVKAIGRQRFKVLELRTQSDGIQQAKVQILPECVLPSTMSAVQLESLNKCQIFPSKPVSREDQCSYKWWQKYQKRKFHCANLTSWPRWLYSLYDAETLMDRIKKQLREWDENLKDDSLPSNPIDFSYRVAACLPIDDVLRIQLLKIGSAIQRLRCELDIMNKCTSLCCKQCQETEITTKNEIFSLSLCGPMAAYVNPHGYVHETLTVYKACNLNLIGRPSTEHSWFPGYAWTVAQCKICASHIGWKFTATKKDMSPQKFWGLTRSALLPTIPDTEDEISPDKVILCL
# Sequence (Q16531 whole entry partner): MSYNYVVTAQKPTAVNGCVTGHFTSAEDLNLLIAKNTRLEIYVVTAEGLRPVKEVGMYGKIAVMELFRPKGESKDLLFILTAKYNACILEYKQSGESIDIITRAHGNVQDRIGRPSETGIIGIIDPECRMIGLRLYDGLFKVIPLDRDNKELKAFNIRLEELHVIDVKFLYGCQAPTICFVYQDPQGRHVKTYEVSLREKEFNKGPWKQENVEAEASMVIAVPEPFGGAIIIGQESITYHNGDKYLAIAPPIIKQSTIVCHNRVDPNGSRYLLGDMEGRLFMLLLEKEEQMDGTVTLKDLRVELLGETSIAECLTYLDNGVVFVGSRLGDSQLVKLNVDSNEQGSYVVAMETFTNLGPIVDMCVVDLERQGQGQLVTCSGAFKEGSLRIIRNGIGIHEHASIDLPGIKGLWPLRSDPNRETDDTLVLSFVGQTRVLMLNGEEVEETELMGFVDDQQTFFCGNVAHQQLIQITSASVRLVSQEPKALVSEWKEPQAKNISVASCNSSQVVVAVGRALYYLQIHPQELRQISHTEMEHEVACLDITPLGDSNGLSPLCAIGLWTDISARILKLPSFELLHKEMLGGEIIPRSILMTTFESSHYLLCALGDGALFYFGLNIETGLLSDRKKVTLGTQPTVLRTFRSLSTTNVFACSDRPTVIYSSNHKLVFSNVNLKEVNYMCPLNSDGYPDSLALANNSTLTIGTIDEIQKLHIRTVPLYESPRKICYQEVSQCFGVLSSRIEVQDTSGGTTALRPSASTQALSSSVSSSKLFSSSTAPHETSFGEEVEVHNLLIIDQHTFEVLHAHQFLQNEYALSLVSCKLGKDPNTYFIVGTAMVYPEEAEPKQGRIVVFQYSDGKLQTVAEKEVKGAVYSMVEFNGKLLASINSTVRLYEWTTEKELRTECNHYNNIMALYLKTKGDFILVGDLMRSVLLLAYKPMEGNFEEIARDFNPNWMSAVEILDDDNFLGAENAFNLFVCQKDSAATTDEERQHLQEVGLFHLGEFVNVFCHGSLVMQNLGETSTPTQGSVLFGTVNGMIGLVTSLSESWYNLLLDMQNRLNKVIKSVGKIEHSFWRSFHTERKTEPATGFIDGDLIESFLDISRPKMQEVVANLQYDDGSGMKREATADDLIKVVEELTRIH
# assay info: HiBit-IKZF2 assay (HiBiT-Helios degradation in MOLT4 cells)
# Assay type: cell-based
# study conditions: concentration at which 50% of HiBiT-Helios degradation was achieved
metric: DC50

Prompt line: Recall the recorded DC50 for O=C1CCC(N2Cc3cc(C4CCN(Cc5cccc(NC(=O)c6ccccc6)c5)CC4)ccc3C2=O)C(=O)N1 (stereo not shown) with IKZF2 (Homo sapiens, UniProt Q96SW2+Q9UKS7) and state it.
Response line: 10 to 30 nM

Prompt line: Reported DC50 for IKZF2 (Homo sapiens, UniProt Q96SW2+Q9UKS7), given O=C1CCC(N2Cc3cc(C4CCN(Cc5ccc(C(=O)Nc6ccccc6)cc5)CC4)ccc3C2=O)C(=O)N1 (stereo not shown) ?
Response line: 30 to 150 nM

Prompt line: // lookup DC50 | system=IKZF2 (Homo sapiens, UniProt Q96SW2+Q9UKS7) | key= O=C1CCC(N2Cc3cc(C4(O)CCN(Cc5ccc(-c6ccccc6)cc5)CC4)ccc3C2=O)C(=O)N1 (stereo not shown)
Response line: < 10 nM

Prompt line: Missing value: DC50, IKZF2 (Homo sapiens, UniProt Q96SW2+Q9UKS7), entry O=C1CCC(N2Cc3cc(C4(O)CCN(Cc5ccc6c(c5)CCO6)CC4)ccc3C2=O)C(=O)N1 (stereo not shown) . Fill in?
Response line: < 10 nM

Prompt line: Please state recorded DC50 (tested on IKZF2 (Homo sapiens, UniProt Q96SW2+Q9UKS7)) of CC(c1ccccc1)N1CCC(O)(c2ccc3c(c2)CN(C2CCC(=O)NC2=O)C3=O)CC1 (stereo not shown)
Response line: < 10 nM

Prompt line: Item: O=C1CCC(N2Cc3cc(C4(O)CCN(Cc5cccc(Oc6ccccc6)c5)CC4)ccc3C2=O)C(=O)N1 (stereo not shown) Test system: IKZF2 (Homo sapiens, UniProt Q96SW2+Q9UKS7) Read-out: DC50 Value: ?
Response line: < 10 nM

Prompt line: Recorded DC50 for O=C1CCC(N2Cc3cc(C4CCN(Cc5ccc6c(c5)C(=O)N(c5ccsn5)C6)CC4)ccc3C2=O)C(=O)N1 (stereo not shown) with IKZF2 (Homo sapiens, UniProt Q96SW2+Q9UKS7), please?
Response line: 10 to 30 nM

Prompt line: Give DC50 (IKZF2 (Homo sapiens, UniProt Q96SW2+Q9UKS7)) of the following compound: O=C1CCC(N2Cc3cc(C4CCN(Cc5cccc(Nc6ccccc6)c5)CC4)ccc3C2=O)C(=O)N1 (stereo not shown)
Response line: < 10 nM

Prompt line: Give the reported DC50 for O=C1CCC(N2Cc3cc(C4(O)CCN(Cc5ccc(F)c(Cl)c5)CC4)ccc3C2=O)C(=O)N1 (stereo not shown) (system: IKZF2 (Homo sapiens, UniProt Q96SW2+Q9UKS7)).
Response line: < 10 nM

Prompt line: Identify the measured DC50 of O=C1CCC(N2Cc3cc(C4CCN(Cc5ccc6c(c5)C(=O)N(c5ncccn5)C6)CC4)ccc3C2=O)C(=O)N1 (stereo not shown) for IKZF2 (Homo sapiens, UniProt Q96SW2+Q9UKS7).
Response line: 10 to 30 nM

Prompt line: Value wanted: DC50 (IKZF2 (Homo sapiens, UniProt Q96SW2+Q9UKS7)) of entry O=C1CCC(N2Cc3cc(C4(O)CCN(Cc5ccccc5OCc5ccccc5)CC4)ccc3C2=O)C(=O)N1 (stereo not shown)
Response line: < 10 nM

Prompt line: Fill in the recorded DC50 for this compound, with IKZF2 (Homo sapiens, UniProt Q96SW2+Q9UKS7) as test system: O=C1CCC(N2Cc3cc(C4CCN(Cc5ccc(S(=O)(=O)N6CCc7ccccc76)cc5)CC4)ccc3C2=O)C(=O)N1 (stereo not shown)
Response line: < 10 nM

Prompt line: Query DC50 on IKZF2 (Homo sapiens, UniProt Q96SW2+Q9UKS7) for O=C1CCC(N2Cc3cc(C4(O)CCN(Cc5ccc(Oc6ccccc6)cc5)CC4)ccc3C2=O)C(=O)N1 (stereo not shown)
Response line: < 10 nM

Prompt line: Entry O=C1CCC(N2Cc3cc(C4CCN(Cc5cccc(Nc6cccnn6)c5)CC4)ccc3C2=O)C(=O)N1 (stereo not shown) , system IKZF2 (Homo sapiens, UniProt Q96SW2+Q9UKS7): what DC50 was measured?
Response line: 10 to 30 nM

Prompt line: What DC50 appears in the records for this compound with IKZF2 (Homo sapiens, UniProt Q96SW2+Q9UKS7)? O=C1CCC(N2Cc3cc(C4CCN(Cc5nccc(Nc6ccccc6)c5F)CC4)ccc3C2=O)C(=O)N1 (stereo not shown)
Response line: 10 to 30 nM

Prompt line: Under IKZF2 (Homo sapiens, UniProt Q96SW2+Q9UKS7): DC50 value of O=C1CCC(N2Cc3cc(C4CCN(Cc5ccc6c(c5F)C(=O)N(c5ccccc5)C6)CC4)ccc3C2=O)C(=O)N1 (stereo not shown) ?
Response line: 10 to 30 nM

Prompt line: Form entry - test system: IKZF2 (Homo sapiens, UniProt Q96SW2+Q9UKS7); read-out: DC50; compound: O=C1CCC(N2Cc3cc(C4CCN(Cc5ccc6c(c5)C(=O)N(c5ncccn5)CC6)CC4)ccc3C2=O)C(=O)N1 (stereo not shown)
Response line: 30 to 150 nM

Prompt line: Request - read-out DC50 | tested on IKZF2 (Homo sapiens, UniProt Q96SW2+Q9UKS7) | compound Cc1ccccc1N1Cc2ccc(CN3CCC(c4ccc5c(c4)CN(C4CCC(=O)NC4=O)C5=O)CC3)cc2C1=O (stereo not shown)
Response line: 10 to 30 nM

Prompt line: Write down the reported DC50 of O=C1CCC(N2Cc3cc(C4(O)CCN(Cc5ccc(F)c(F)c5)CC4)ccc3C2=O)C(=O)N1 (stereo not shown) , test system: IKZF2 (Homo sapiens, UniProt Q96SW2+Q9UKS7).
Response line: < 10 nM

Prompt line: Query the reported DC50 for IKZF2 (Homo sapiens, UniProt Q96SW2+Q9UKS7); item: O=C1CCC(N2Cc3cc(C4(O)CCN(Cc5cccc(-c6ccccc6)c5)CC4)ccc3C2=O)C(=O)N1 (stereo not shown)
Response line: < 10 nM

Prompt line: Look up DC50 with IKZF2 (Homo sapiens, UniProt Q96SW2+Q9UKS7) for this compound: O=C1CCC(N2Cc3cc(C4(O)CCN(Cc5ccc6c(c5)OC(F)(F)O6)CC4)ccc3C2=O)C(=O)N1 (stereo not shown)
Response line: < 10 nM

Prompt line: Could you share what DC50 was measured for O=C1CCC(N2Cc3cc(C4CCN(Cc5ccc(F)c(Nc6ccccc6)n5)CC4)ccc3C2=O)C(=O)N1 (stereo not shown) , tested on IKZF2 (Homo sapiens, UniProt Q96SW2+Q9UKS7)?
Response line: 10 to 30 nM

Prompt line: # get_value(readout= DC50, system= IKZF2 (Homo sapiens, UniProt Q96SW2+Q9UKS7)) for O=C1CCC(N2Cc3cc(C4CCN(Cc5ccc6c(n5)C(=O)N(c5ccccc5)C6)CC4)ccc3C2=O)C(=O)N1 (stereo not shown)
Response line: 10 to 30 nM

Prompt line: Find DC50 (IKZF2 (Homo sapiens, UniProt Q96SW2+Q9UKS7)) for the entry O=C1CCC(N2Cc3cc(C4(O)CCN(Cc5ccc6c(c5)C(=O)N(c5ccccc5)C6)CC4)ccc3C2=O)C(=O)N1 (stereo not shown)
Response line: < 10 nM

Prompt line: Checklist item: DC50 tested on IKZF2 (Homo sapiens, UniProt Q96SW2+Q9UKS7), entry O=C1CCC(N2Cc3cc(C4(O)CCN(Cc5cccc(-c6nccs6)c5)CC4)ccc3C2=O)C(=O)N1 (stereo not shown) , value?
Response line: < 10 nM

Prompt line: So what DC50 did O=C1CCC(N2Cc3cc(C4CCN(Cc5ccc(N6CCCC6=O)cc5)CC4)ccc3C2=O)C(=O)N1 (stereo not shown) get with IKZF2 (Homo sapiens, UniProt Q96SW2+Q9UKS7)?
Response line: 30 to 150 nM

Prompt line: Return DC50 measured with IKZF2 (Homo sapiens, UniProt Q96SW2+Q9UKS7) given this compound: O=C1CCC(N2Cc3cc(C4CCN(Cc5cc6c(cn5)CN(c5ccccc5)C6=O)CC4)ccc3C2=O)C(=O)N1 (stereo not shown)
Response line: 10 to 30 nM

Prompt line: State its DC50 on IKZF2 (Homo sapiens, UniProt Q96SW2+Q9UKS7): O=C1CCC(N2Cc3cc(C4(O)CCN(Cc5ccc(OC(F)F)cc5)CC4)ccc3C2=O)C(=O)N1 (stereo not shown)
Response line: < 10 nM
